target: glucagon receptor (GCGR) (human, UniProt P47871 26-477); test: cell-based or functional assay
Sequence (P47871 26-477): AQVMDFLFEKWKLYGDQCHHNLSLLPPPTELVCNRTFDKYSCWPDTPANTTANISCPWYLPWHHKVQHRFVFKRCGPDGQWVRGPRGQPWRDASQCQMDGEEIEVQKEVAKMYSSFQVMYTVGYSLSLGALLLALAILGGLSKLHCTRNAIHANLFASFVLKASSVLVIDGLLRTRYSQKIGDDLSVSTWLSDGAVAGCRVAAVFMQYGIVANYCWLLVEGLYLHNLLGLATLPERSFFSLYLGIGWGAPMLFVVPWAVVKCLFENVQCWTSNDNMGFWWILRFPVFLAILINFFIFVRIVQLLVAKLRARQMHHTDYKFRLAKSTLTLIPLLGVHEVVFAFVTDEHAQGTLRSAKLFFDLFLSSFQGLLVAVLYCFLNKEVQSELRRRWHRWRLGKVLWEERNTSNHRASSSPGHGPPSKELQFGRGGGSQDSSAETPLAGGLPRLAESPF
Starred links: 1 amine or outer side, 2 acyl side, 3 side chain; linkers in the order of their positions; H or OH if unused. Non-standard residues stand in square brackets, D forms with d. Groups on a side chain read outwards from the residue. Primed or numbered codes have the meaning given here. No end group written: not given here. *: point of attachment. Dodecylbenzoate = dodecylbenzoyl lipid group; γGlu = O=C(O)[C@H](CCC(=O)[*:2])N[*:1]; Stearoyl = CCCCCCCCCCCCCCCCCC(=O)*; αMeF = C[C@](N)(Cc1ccccc1)C(=O)O; αMeK = C[C@](N)(CCCCN)C(=O)O; αMeS = C[C@](N)(CO)C(=O)O; PEG2′ = not defined here; Aib = CC(C)(N)C(=O)O; Ahx = NCCCCCC(=O)O
# Primary assay EC50 (cAMP), Gluc-R, first run annotations
Readout kind: Primary assay EC50 (cAMP), Gluc-R, first run (nM)

Binder | Reported
H[Aib]EGS[αMeF]TSDV[αMeS]S[αMeF]LEGEAA[αMeK]E[αMeF]IA[αMeF]VVK([Ahx-Ahx-Dodecylbenzoate])GG-NH2 [SEQ ID NO 177] | 27
H[Aib]EGS[αMeF]TSDV[αMeS]S[αMeF]LEGEAAK([PEG2′-PEG2′-Stearoyl])E[αMeF]IA[αMeF]VV[αMeK]GG-NH2 [SEQ ID NO 162] | 26
H[Aib]EGS[αMeF]TSDV[αMeS]S[αMeF]LEGEAAK([PEG2′-PEG2′-PEG2′-Stearoyl])E[αMeF]IA[αMeF]VV[αMeK]GG-NH2 [SEQ ID NO 154] | 26
H[Aib]EGS[αMeF]TSDV[αMeS]S[αMeF]LEGEAA[αMeK]E[αMeF]IA[αMeF]VVK([γGlu-γGlu-Dodecylbenzoate])GG-NH2 [SEQ ID NO 174] | 26
H[Aib]EGS[αMeF]TSDV[αMeS]S[αMeF]LEGEAA[αMeK]E[αMeF]IA[αMeF]VVK([PEG2′-PEG2′-Stearoyl])GG-NH2 [SEQ ID NO 189] | 27
H[Aib]EGS[αMeF]TSDV[αMeS]S[αMeF]LEGEAA[αMeK]E[αMeF]IA[αMeF]VVK([γGlu-γGlu-γGlu-Dodecylbenzoate])GG-NH2 [SEQ ID NO 175] | 26
H[Aib]EGS[αMeF]TSDV[αMeS]S[αMeF]LEGEAA[αMeK]E[αMeF]IA[αMeF]VVK([γGlu-Dodecylbenzoate])GG-NH2 [SEQ ID NO 173] | 27
H[Aib]EGS[αMeF]TSDV[αMeS]S[αMeF]LEGEAA[αMeK]E[αMeF]IA[αMeF]VVK([PEG2′-PEG2′-Stearoyl])GG-NH2 [SEQ ID NO 198] | 26
H[Aib]EGS[αMeF]TSDV[αMeS]S[αMeF]LEGEAA[αMeK]E[αMeF]IA[αMeF]VVK([Ahx-Ahx-Ahx-Dodecylbenzoate])GG-NH2 [SEQ ID NO 178] | 26
